Test system: Saccharomyces cerevisiae
run-description: protein stability index of tFT-peptide fusion (C-terminal peptide) (PSI (0-1 scale)); higher = more stable (slower turnover)
experimental-conditions: genetic background: das1 deletion; temperature: 30 C
Short version: protein stability index at least 0.7 is Yes, less is No.

>>> assigned_label("GEYLRDEDTLFT [NIP7 C-terminal 12 aa]")
"Yes"
>>> assigned_label("DNEGSRKMLKIE [CIN8 C-terminal 12 aa]")
"No"
>>> assigned_label("RLNNWLFGWNDL [NUP53 C-terminal 12 aa]")
"Yes"
>>> assigned_label("VKKYSMKKKKKR [YDR320W-B C-terminal 12 aa]")
"No"
>>> assigned_label("KASNGHIELIGE [CRF1 C-terminal 12 aa]")
"No"
>>> assigned_label("LLISMIAAGILL [GAS2 C-terminal 12 aa]")
"No"
>>> assigned_label("TARPFPAPNIAA [YLR349W C-terminal 12 aa]")
"Yes"
>>> assigned_label("NKNKNKVTKGRR [RAD27 C-terminal 12 aa]")
"No"
>>> assigned_label("AAVAKQKVSDSK [DHR2 C-terminal 12 aa]")
"No"
>>> assigned_label("LTVTRWKLQITG [YPR160W-A C-terminal 12 aa]")
"No"
>>> assigned_label("THMKPWYRRWFW [INA17 C-terminal 12 aa]")
"Yes"
>>> assigned_label("LPKIIKKHQRLS [MRH4 C-terminal 12 aa]")
"Yes"
>>> assigned_label("IAAFVVAVLFAF [PRY3 C-terminal 12 aa]")
"No"

---

Documented protein stability index across a set of sequences
Tested on: Saccharomyces cerevisiae
run-description: protein stability index of tFT-peptide fusion (C-terminal peptide) (PSI (0-1 scale)); higher = more stable (slower turnover)
experimental-conditions: genetic background: cdc53-1; temperature: 37 C
property-measured: protein stability index

>>> reported("FGLMCFIFYVLV")
0.331
>>> reported("RLGRYSIIHCLA")
0.459
>>> reported("FFCCRLPCLFVL")
0.407
>>> reported("RNKIWCTVIMRL")
0.537
>>> reported("FSLRLFLVLALS")
0.377
>>> reported("LPLVFYCFLLHS")
0.523
>>> reported("VLVVRVLLSDLV")
0.255
>>> reported("FTFPLPPSLLLV")
0.389
>>> reported("DHSWGGLLICTC")
0.492
>>> reported("IRDGPWKRVLVV")
0.596
>>> reported("VLFLLLFVSRVA")
0.398
>>> reported("RGYATTALHWVS")
0.77
>>> reported("FRTTGQAPPSKP")
0.743
>>> reported("PPPPLATTSAPL")
0.743
>>> reported("IFLLFPFSWRIF")
0.63
>>> reported("GSVGFICCVVVV")
0.431
>>> reported("VAALLCWLHLYA")
0.639
>>> reported("GTETWVFVLLKF")
0.0712
>>> reported("LFMLHFLAVLRY")
0.141
>>> reported("GGWFFWVGAWVV")
0.346
>>> reported("GELDVRKLLKYF")
0.718
>>> reported("SRRCGLFVFILF")
0.378
>>> reported("WDPEVVHRLWLN")
0.772
>>> reported("LMWVFPRVVWLY")
0.102
>>> reported("GALWPGALRFLN")
0.747
>>> reported("GGGVGGAVVLFW")
0.764
>>> reported("DVWEHLHKQHNM")
0.765
>>> reported("FLIVLLVIFFGF")
0.387

All values here come from the supplement of paper PMC10724198.
